Reference source: patent US20220177594A1

Target: T1, canine OSMR on canine cells (canine, UniProt A0A8I3MI11 28-967)
T1 sequence: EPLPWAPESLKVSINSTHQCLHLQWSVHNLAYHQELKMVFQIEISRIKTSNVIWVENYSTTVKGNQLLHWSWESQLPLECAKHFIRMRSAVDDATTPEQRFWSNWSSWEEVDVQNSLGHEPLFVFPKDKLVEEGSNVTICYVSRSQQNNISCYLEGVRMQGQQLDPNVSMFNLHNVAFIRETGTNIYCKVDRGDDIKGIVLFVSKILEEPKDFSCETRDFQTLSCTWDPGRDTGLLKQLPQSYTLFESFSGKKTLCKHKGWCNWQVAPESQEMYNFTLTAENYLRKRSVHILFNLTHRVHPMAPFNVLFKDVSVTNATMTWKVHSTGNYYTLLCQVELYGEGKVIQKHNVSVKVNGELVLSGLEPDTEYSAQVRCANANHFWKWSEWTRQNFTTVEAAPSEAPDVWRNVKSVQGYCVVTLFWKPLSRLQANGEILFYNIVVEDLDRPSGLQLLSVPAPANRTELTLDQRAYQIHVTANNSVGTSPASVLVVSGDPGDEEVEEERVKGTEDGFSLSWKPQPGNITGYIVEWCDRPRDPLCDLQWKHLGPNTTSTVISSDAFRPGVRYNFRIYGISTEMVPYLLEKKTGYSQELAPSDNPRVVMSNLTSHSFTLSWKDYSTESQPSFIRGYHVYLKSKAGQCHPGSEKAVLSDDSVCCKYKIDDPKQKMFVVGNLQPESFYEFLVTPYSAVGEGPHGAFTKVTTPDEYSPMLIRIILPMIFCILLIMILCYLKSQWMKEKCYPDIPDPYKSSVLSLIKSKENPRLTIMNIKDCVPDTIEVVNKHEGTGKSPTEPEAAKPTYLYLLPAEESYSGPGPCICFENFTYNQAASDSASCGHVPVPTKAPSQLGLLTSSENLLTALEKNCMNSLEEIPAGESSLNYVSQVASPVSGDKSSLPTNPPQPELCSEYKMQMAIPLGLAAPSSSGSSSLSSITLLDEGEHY
Assay: cell-based or functional assay
READOUT_KIND: % inh of canine IL-31 pSTAT3 signaling, canine DH82 cells (% inh)
Provide only the numeric value, understood in % inh.

- BINDER: "Mu_14C04 (antibody, V domains shown, Mouse hybridoma IgG) VH: EVQLQESGAELVKPGASVKISCKASGYAFSNYWMNWMKQRPGKGLEWIGQIYPGHVNTNYNGNFKDKATLTADKSSSTAYMQLSSLTSEDSAVYFCARSADNSGFVLFAYWGQGTLVTVS VL: DIVLTQSPASLAVSLGQRATISCRASKSVSTSGYSYLHWYQQKPGQPPKLLIFLASNLESGVPARFSGSGSGTDFTLNIHPVEEEDAATYYCQHSRELPLTFGAGTKLELK"
  UNIT_TAG: "% inh"
  NUMERIC_READOUT: 72
- BINDER: "Mu_10F07 (antibody, V domains shown, Mouse hybridoma IgG) VH: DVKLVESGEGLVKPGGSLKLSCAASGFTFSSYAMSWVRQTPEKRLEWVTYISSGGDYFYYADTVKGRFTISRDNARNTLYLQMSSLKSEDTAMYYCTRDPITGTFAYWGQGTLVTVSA VL: DIQMTQTTSSLSASLGDRVTISCRASQDITNYLNWYQQKPDGTVKLLIYYTSTLHSGVPSRFSGSGSGTDFSLTISNLEQEDIATYFCQQGHMLPWTFGGGTKLEIK"
  UNIT_TAG: "% inh"
  NUMERIC_READOUT: 93

Supply measured % inh of canine IL-31 pSTAT3 signaling, canine DH82 cells of Mu_02D09 (antibody, V domains shown, Mouse hybridoma IgG; also called mouse anti-OSMR 02D09) VH: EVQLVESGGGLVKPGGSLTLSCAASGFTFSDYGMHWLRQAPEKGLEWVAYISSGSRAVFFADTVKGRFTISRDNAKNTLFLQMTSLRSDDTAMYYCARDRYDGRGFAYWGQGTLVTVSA VL: DIVLTQSPATLSVTPGDSVSLSCRASQSISNNLHWYQQTSHESPRLLITYASQSISGIPSRFSGSGSGTDFTLSINSVETEDFGMYFCQQSNSWPLTFGAGTKLELK in your reply.
0

Supply measured % inh of canine IL-31 pSTAT3 signaling, canine DH82 cells of Mu_09E09 (antibody, V domains shown, Mouse hybridoma IgG) VH: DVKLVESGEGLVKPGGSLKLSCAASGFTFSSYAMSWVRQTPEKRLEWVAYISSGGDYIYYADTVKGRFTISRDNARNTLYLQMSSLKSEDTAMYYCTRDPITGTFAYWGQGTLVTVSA VL: DLQMTQTTSSLSASLGDRVTISCRASQDINNYLNWYQQKPDGTVKLLIYYTSTLHSGVPSRFSGSGSGTDYSLTISNLEQEDIATYFCQQGNTLPWTFGGGTKLEIK in your reply.
80
